# System: SARS-CoV-2
# PROCEDURE_SUMMARY: microbe, parasite or virus in culture
# Format: cell-based
# TEST_SETTINGS: Severe acute respiratory syndrome coronavirus 2, VeroE6/TMPRSS2; read-out: EC50 against all tested SARS-CoV-2 variants
pEC50: −log10 of the molar value.
REPORTED_METRIC: pEC50

- Cn1cnc(Cn2c(=O)[nH]/c(=N\c3cc4cn(C)nc4cc3Cl)n(Cc3cc(F)c(F)cc3F)c2=O)n1: 6.30 to 6.54
